# Test system: SF-295 CNS
# assay.text: NCI tumour cell line growth inhibition, 48 h
measure.name: TGI

[ask] Please give measured TGI of the following entry: CC1CN=C(c2cccc(-c3nc(-c4cccc(C5=NCC(C)N5)c4)nc(N(C)C)n3)c2)N1 (centres undefined)
[reply] 14.3 µM

[ask] Please give measured TGI of the following entry: Cc1c(N2C(=O)/C(=C/c3ccc(N(CCC#N)CCC#N)cc3)N=C2c2ccccc2)c(=O)n(-c2ccccc2)n1C
[reply] > 100 µM

[ask] Please give measured TGI of the following entry: COC1CCC(=O)N1CN(C(C)=O)c1ccc(C)cc1 (centres undefined)
[reply] > 100 µM

More entries:
[ask] Please give measured TGI of the following entry: O=S(=O)(O)Oc1cc2c(c(OS(=O)(=O)O)c1)C[C@H](OS(=O)(=O)O)[C@@H](c1ccc(OS(=O)(=O)O)c(OS(=O)(=O)O)c1)O2
[reply] > 100 µM

[ask] Please give measured TGI of the following entry: CC[C@H](C)C1=C(O)[N@+]2([O-])Oc3ccc(-c4c(O)c(O)c(-c5ccc(O)cc5)c(OC(C)=O)c4OC(C)=O)cc3O[C@]2([C@@H](C)CC)C(=O)N1O
[reply] > 50 µM

* * *

# Tested on: HL-60(TB) leukemia
# assay.text: NCI tumour cell line growth inhibition, 48 h; in the data active = GI50 below about 0.43 µM; inactive = the rest
Pick one and only one: T for active, F for inactive

[ask] Given O=S(=O)(Nc1ccc(F)c(Cl)c1)c1ccc(-c2cnc(C3CC3)o2)cc1 , state the outcome it received in this test.
[reply] T

[ask] Given COc1cc(/C=C/c2cc(/C=C/c3ccc(O)c(OC)c3)n(C(=O)Nc3ccc(Cl)cc3)n2)ccc1O , state the outcome it received in this test.
[reply] T

[ask] Given CCOC(=O)c1ccc2c(c1)[n+](=O)c(C(C)=O)c(C(F)(F)F)n2[O-] , state the outcome it received in this test.
[reply] F

[ask] Given Cc1cc(Nc2cc(N3CCN(C)CC3)nc(Sc3ccc(NC(=O)C4CC4)cc3)n2)n[nH]1 , state the outcome it received in this test.
[reply] T

* * *

# Test system: SF-295 CNS
# assay.text: NCI tumour cell line growth inhibition, 48 h; in the data active means GI50 below about 0.43 µM; inactive means the rest
Pick one and only one: Yes = active, No = inactive

Consider the following illustrative entries.
[ask] Given COc1cccc(/C(C)=N/NC(=O)CSc2nc3ccccc3c(=O)n2CCc2ccc(S(N)(=O)=O)cc2)c1 , state the outcome it received in this test.
[reply] No

[ask] Given COc1cc(/C=C/c2cc(/C=C/c3ccc(O)c(OC)c3)n(C(=O)Nc3ccc(Cl)cc3)n2)ccc1O , state the outcome it received in this test.
[reply] No

[ask] Given CCOC(=O)c1cnn2c3ccccc3n(S(=O)(=O)c3ccc(OC)cc3)c12 , state the outcome it received in this test.
[reply] Yes

[ask] Given Nc1nc(=O)n([C@@H]2CS[C@H](CO)O2)cc1F , state the outcome it received in this test.
[reply] No

[ask] Given O=C(Nc1cc(Oc2cc(F)c(NC(=O)C3(C(=O)Nc4ccc(F)cc4)CC3)cc2F)ccn1)C1CC1 , state the outcome it received in this test.
[reply] No

Now turn to the next compound.
[ask] Given N#Cc1c(N)nc(NCc2ccccc2)c(C#N)c1-c1ccc(Cl)cc1Cl , state the outcome it received in this test.
[reply] No
